Provenance of the data: ChEMBL document CHEMBL4811252

study_system: Protein deacetylase HDAC6 (Homo sapiens)
Sequence (Q9UBN7 whole entry): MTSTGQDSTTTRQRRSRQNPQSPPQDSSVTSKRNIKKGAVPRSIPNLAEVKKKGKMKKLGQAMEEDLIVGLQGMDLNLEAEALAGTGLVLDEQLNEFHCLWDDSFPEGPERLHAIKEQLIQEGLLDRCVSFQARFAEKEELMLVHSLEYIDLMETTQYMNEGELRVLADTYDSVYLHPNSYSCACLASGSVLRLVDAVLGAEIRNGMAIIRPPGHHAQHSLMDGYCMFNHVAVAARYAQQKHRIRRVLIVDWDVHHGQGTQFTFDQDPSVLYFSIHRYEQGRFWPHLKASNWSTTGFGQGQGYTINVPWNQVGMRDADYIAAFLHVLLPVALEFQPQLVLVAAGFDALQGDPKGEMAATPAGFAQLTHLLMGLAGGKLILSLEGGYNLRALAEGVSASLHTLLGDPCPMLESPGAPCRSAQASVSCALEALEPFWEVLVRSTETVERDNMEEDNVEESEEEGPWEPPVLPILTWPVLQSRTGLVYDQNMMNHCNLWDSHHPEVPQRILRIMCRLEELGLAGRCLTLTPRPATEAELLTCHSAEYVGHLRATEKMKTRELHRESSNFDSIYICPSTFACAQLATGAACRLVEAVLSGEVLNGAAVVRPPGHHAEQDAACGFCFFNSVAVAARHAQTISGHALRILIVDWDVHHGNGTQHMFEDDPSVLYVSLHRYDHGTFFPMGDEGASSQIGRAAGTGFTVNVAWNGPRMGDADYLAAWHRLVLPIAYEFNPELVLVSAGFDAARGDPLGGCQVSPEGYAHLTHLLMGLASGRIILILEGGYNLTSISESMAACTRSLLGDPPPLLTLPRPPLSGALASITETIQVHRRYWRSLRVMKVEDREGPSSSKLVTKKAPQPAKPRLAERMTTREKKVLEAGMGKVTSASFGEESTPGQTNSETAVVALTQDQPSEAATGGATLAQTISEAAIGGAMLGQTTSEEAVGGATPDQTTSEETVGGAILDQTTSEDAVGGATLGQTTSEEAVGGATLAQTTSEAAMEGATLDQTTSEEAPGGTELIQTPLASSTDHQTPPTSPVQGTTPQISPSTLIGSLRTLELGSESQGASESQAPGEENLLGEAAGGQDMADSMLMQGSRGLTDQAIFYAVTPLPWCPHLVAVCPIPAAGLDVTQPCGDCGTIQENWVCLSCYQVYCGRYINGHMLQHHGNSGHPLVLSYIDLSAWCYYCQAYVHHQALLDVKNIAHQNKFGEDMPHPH
protocol_text: Inhibition of recombinant full length human HDAC6 expressed in baculovirus infected Sf9 cells using Z-(Ac)-Lys-AMC as substrate incubated for 40 mins by fluorescence based assay
metric_name: IC50 (nM)

[I] O=C(NO)c1ccc(NCc2nc(-c3ccccc3)nn2-c2ccc(Br)cc2)cc1
[II] Cc1cccc(-c2nc(CNc3ccc(C(=O)NO)cc3)n(-c3ccccc3)n2)c1
Query: Thinking about recorded IC50 values, which is higher, I or II ? Your choice should be expressed through its label.
Reply: I

[I] COc1ccc(-n2nc(-c3ccc(O)cc3)nc2CNc2ccc(C(=O)NO)cc2)cc1
[II] O=C(NO)c1ccc(NCc2nc(-c3cccs3)nn2-c2ccc(O)cc2)cc1
[III] O=C(NO)c1ccc(NCc2nc(-c3cc4ccccc4s3)nn2-c2ccccc2)cc1
[IV] O=C(NO)c1ccc(NCc2nc(-c3ccccc3)nn2-c2ccccc2Cl)cc1
[V] O=C(NO)c1ccc(NCc2nc(-c3sccc3Br)nn2-c2ccccc2)cc1
Query: Task field, ranking: reported IC50, descending order. # answer = labels listed in requested order
Reply: IV, III, I, V, II
(IV: 669 nM, III: 324 nM, I: 102 nM, V: 54.9 nM, II: 33.5 nM)

[P] COc1ccc(-n2nc(-c3ccccc3)nc2CNc2ccc(C(=O)NO)cc2)cc1
[Q] O=C(NO)c1ccc(NCc2nc(-c3ccccc3)nn2-c2ccc(F)cc2)cc1
Query: Thinking about recorded IC50 values, which is higher, P or Q ? Your choice should be expressed through its label.
Reply: Q
(Q: 274 nM, P: 127 nM)

###

study_system: Protein deacetylase HDAC6 (Homo sapiens) (UniProt Q9UBN7)
assay_setup: Sf9, dose 100.0 nM, time 40.0 min
metric_name: inhibition (%)

>  <compound_structure_string>
Cc1ccc(-c2nc(CNc3ccc(C(=O)NO)cc3)n(-c3ccccc3)n2)s1

>  <u>
%

>  <inhibition>
79.7

$$$$
>  <compound_structure_string>
O=C(NO)c1ccc(NCc2nc(-c3ccc(F)cc3)nn2-c2ccccc2)cc1

>  <u>
%

>  <inhibition>
70.9

$$$$
>  <compound_structure_string>
O=C(NO)c1ccc(NCc2nc(-c3ccc(Cl)cc3)nn2-c2ccccc2)cc1

>  <u>
%

>  <inhibition>
67.2

$$$$
>  <compound_structure_string>
CCc1ccc(-c2nc(CNc3ccc(C(=O)NO)cc3)n(-c3ccccc3)n2)cc1

>  <u>
%

>  <inhibition>
54.6

$$$$
>  <compound_structure_string>
Cc1ccc(-n2nc(-c3ccccc3)nc2CNc2ccc(C(=O)NO)cc2)cc1

>  <u>
%

>  <inhibition>
60.7

$$$$
>  <compound_structure_string>
Cc1cc(C)cc(-n2nc(-c3ccccc3)nc2CNc2ccc(C(=O)NO)cc2)c1

>  <u>
%

>  <inhibition>
49.8

$$$$
>  <compound_structure_string>
Cc1ccc(-n2nc(-c3ccccc3)nc2CNc2ccc(C(=O)NO)cc2)cc1C

>  <u>
%

>  <inhibition>
53

$$$$
>  <compound_structure_string>
COc1ccc(-n2nc(-c3ccc(O)cc3)nc2CNc2ccc(C(=O)NO)cc2)cc1

>  <u>
%

>  <inhibition>
70.3

$$$$
>  <compound_structure_string>
O=C(NO)c1ccc(NCc2nc(-c3ccccc3)nn2-c2ccccc2)cc1

>  <u>
%

>  <inhibition>
72.6

$$$$
>  <compound_structure_string>
O=C(NO)c1ccc(NCc2nc(-c3ccsc3)nn2-c2ccccc2)cc1

>  <u>
%

>  <inhibition>
53.4

$$$$

###

study_system: Histone deacetylase 2 (Homo sapiens, UniProt Q92769)
Sequence (Q92769 whole entry): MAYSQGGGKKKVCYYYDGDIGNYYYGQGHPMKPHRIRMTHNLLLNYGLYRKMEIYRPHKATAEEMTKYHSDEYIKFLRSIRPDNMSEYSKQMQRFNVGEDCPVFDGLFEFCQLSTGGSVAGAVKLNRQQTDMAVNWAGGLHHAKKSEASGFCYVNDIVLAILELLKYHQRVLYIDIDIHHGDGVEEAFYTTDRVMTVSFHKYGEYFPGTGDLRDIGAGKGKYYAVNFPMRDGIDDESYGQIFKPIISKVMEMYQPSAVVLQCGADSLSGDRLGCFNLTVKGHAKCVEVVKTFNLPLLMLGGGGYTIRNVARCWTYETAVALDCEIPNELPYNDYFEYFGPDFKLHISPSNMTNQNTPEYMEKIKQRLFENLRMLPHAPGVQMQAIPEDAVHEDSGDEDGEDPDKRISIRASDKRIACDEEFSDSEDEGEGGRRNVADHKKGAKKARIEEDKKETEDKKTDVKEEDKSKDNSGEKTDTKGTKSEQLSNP
metric_name: pIC50
pIC50 is defined as minus the log10 of a concentration measured in mol/L.

Query: Identify pIC50 associated with the molecule Cc1ccc(-c2nc(CNc3ccc(C(=O)NO)cc3)n(-c3ccccc3)n2)s1
Reply: 6.65

###

study_system: Histone deacetylase 1 (Homo sapiens)
Sequence (Q13547 whole entry): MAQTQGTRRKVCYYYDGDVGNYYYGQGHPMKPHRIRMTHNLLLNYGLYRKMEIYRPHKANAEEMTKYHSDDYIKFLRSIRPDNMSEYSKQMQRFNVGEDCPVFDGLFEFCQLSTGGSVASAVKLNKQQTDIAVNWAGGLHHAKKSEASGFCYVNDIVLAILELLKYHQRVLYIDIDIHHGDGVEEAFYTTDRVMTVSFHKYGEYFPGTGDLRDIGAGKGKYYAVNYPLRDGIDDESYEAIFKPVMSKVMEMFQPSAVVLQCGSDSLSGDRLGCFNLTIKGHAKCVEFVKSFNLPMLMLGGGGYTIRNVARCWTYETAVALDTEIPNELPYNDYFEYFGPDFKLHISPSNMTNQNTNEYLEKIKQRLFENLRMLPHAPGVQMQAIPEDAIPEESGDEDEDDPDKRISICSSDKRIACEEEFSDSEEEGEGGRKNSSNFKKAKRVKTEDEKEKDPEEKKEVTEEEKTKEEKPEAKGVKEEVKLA
protocol_text: Inhibition of recombinant human HDAC1 using Z-(Ac)-Lys-AMC as substrate incubated for 40 mins by fluorescence based assay
pIC50: −log10 of the molar value.
metric_name: pIC50

Would you please look over these solved cases?
>  <compound_structure_string>
Cc1cccc(-c2nc(CNc3ccc(C(=O)NO)cc3)n(-c3ccccc3)n2)c1

>  <pIC50>
5.26

$$$$
>  <compound_structure_string>
O=C(NO)c1ccc(NCc2nc(-c3ccc(Cl)cc3)nn2-c2ccccc2)cc1

>  <pIC50>
5.62

$$$$

[A] O=C(NO)c1ccc(NCc2nc(-c3ccccc3)nn2-c2ccccc2)cc1
[B] COc1ccc(-n2nc(-c3ccc(O)cc3)nc2CNc2ccc(C(=O)NO)cc2)cc1
[C] O=C(NO)c1ccc(NCc2nc(-c3cc4ccccc4s3)nn2-c2ccccc2)cc1
[D] COc1ccc(-n2nc(-c3ccccc3)nc2CNc2ccc(C(=O)NO)cc2)cc1
Query: List by increasing pIC50. # answer = labels listed in requested order
Reply: B, A, C, D

###

study_system: Histone deacetylase 1 (Homo sapiens)
assay_setup: dose 100.0 nM, time 40.0 min
metric_name: inhibition (%)

[A] O=C(NO)c1ccc(NCc2nc(-c3ccccc3)nn2-c2ccccc2Cl)cc1
[B] Nc1ccccc1NC(=O)c1ccc(NCc2nc(-c3ccccc3)nn2-c2ccccc2)cc1
[C] O=C(NO)c1ccc(NCc2nc(-c3ccc(Cl)c(Cl)c3)nn2-c2ccccc2)cc1
Query: Lab note: inhibition ranking, ascending, for the listed molecules. # answer = labels listed in requested order
Reply: C, A, B
(C: 7.6%, A: 17%, B: 32%)

[P] CCc1ccc(-c2nc(CNc3ccc(C(=O)NO)cc3)n(-c3ccccc3)n2)cc1
[Q] COc1ccc(-c2nc(CNc3ccc(C(=O)NO)cc3)n(-c3ccccc3)n2)cc1
Query: Thinking about recorded inhibition values, which is higher, P or Q ? Your choice should be expressed through its label.
Reply: Q

###

study_system: Protein deacetylase HDAC6 (Homo sapiens) (UniProt Q9UBN7)
assay_setup: Sf9, dose 100.0 nM, time 40.0 min
metric_name: inhibition (%)

>  <compound_structure_string>
O=C(NO)c1ccc(NCc2nc(-c3ccccc3)nn2-c2ccccc2Cl)cc1

>  <inhibition [%]>
64.6

$$$$
>  <compound_structure_string>
Cc1cccc(-c2nc(CNc3ccc(C(=O)NO)cc3)n(-c3ccccc3)n2)c1

>  <inhibition [%]>
64.1

$$$$
>  <compound_structure_string>
O=C(NO)c1ccc(NCc2nc(-c3cccnc3)nn2-c2ccccc2)cc1

>  <inhibition [%]>
57.7

$$$$
>  <compound_structure_string>
O=C(NO)c1ccc(NCc2nc(-c3ccccc3)nn2-c2ccc(Br)cc2)cc1

>  <inhibition [%]>
65.9

$$$$
>  <compound_structure_string>
O=C(NO)c1ccc(NCc2nc(-c3ccccc3)nn2-c2cccc(Cl)c2)cc1

>  <inhibition [%]>
62.3

$$$$
